Tested on: hiPSC-CMs (iCell-Cardiomyocytes^2)
Settings: 3 µM; 2h
Measured Endpoint: FPD (field-potential duration), % change from baseline (%)
Express the result in % but write the number alone.

Consider the following illustrative entries.
[[record]]
molecule = "C[C@H](CS)C(=O)N1CCC[C@H]1C(=O)O [Captopril]"
recorded_number = 0.3

[[record]]
molecule = "C#Cc1cccc(Nc2ncnc3cc(OCCOC)c(OCCOC)cc23)c1 [Erlotinib]"
recorded_number = 2

[[record]]
molecule = "CC(C)(Sc1cc(C(C)(C)C)c(O)c(C(C)(C)C)c1)Sc1cc(C(C)(C)C)c(O)c(C(C)(C)C)c1 [Probucol]"
recorded_number = 3.7

[[record]]
molecule = "CC(=O)Oc1ccccc1C(=O)O [Aspirin]"
recorded_number = 2.5

[[record]]
molecule = "O=C(O)COCCN1CCN(C(c2ccccc2)c2ccc(Cl)cc2)CC1 (stereo not drawn) [Cetirizine]"
recorded_number = 4.9

[[record]]
molecule = "N=C(N)c1ccc(OCCCCCOc2ccc(C(=N)N)cc2)cc1 [Pentamidine]"
recorded_number = 3.6

[[record]]
molecule = "COc1cccc2c1C(=O)c1c(O)c3c(c(O)c1C2=O)C[C@@](O)(C(=O)CO)C[C@@H]3O[C@H]1C[C@H](N)[C@H](O)[C@H](C)O1 [Doxorubicin]"
recorded_number = 3.9

[[record]]
molecule = "COc1nc(N)nc2c1ncn2[C@@H]1O[C@H](COP(=O)(N[C@@H](C)C(=O)OCC(C)(C)C)Oc2cccc3ccccc23)[C@@H](O)[C@@]1(C)O (stereo partly drawn) [BMS-986094]"
recorded_number = -3.6


We now examine a further molecule.
Need FPD (field-potential duration), % change from baseline of CC1(C)S[C@@H]2[C@H](NC(=O)[C@H](N)c3ccc(O)cc3)C(=O)N2[C@H]1C(=O)O [Amoxicillin] , thanks. 0.7
